Reference source for all entries: the supplement of paper PMC10567573

B1: RHOBTB2 (parent)
chain: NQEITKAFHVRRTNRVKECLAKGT

Variants of: B1
Assay: protein stability index of a GFP-peptide fusion (GPS, HEK-293T) (PSI 1-6); higher = more stable;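 also: lentivirally expressed fusions sorted by FACS into six bins by GFP to DsRed ratio, PSI derived from sequencing read proportions per bin multiplied by bin number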
Conditions: c terminus: a fixed tail appended
Record t whenever protein stability index is at 3 or higher; record f when lower.

Illustrative cases are given below, each with its answer.
RESIDUE CODES | GROUP
NQEITKAFHVRGTNRVKECLAKGT | t
NQEITKAFHVRRTNRVKECLAKGV | f
NQEITKAFHVRRTIRVKECLAKGT | t
NQEITKAFHVRRCNRVKECLAKGT | f
NQEITKAFHVRRTNRVKEGLAKGT | t

## Input Is protein stability index for "NTEITKAFHVRRTNRVKECLAKGT" at or above 3?
## Output t

## Input Is protein stability index for "NQEITKAFHVRRTNRVKECLAKRT" at or above 3?
## Output f

## Input Is protein stability index for "NQEIYKAFHVRRTNRVKECLAKGT" at or above 3?
## Output t

## Input Is protein stability index for "NAEITKAFHVRRTNRVKECLAKGT" at or above 3?
## Output t

## Input Is protein stability index for "NQEITKAFHVRRTNRVKECLAKLT" at or above 3?
## Output f

## Input Is protein stability index for "NQEITKAFHVRRTNRVKECLWKGT" at or above 3?
## Output f
